Biological target: T1, murine CD19 protein (murine, UniProt P25918 19-287, limits assumed)
T1 construct: also called mouse CD19-his protein
T1 sequence (looked up): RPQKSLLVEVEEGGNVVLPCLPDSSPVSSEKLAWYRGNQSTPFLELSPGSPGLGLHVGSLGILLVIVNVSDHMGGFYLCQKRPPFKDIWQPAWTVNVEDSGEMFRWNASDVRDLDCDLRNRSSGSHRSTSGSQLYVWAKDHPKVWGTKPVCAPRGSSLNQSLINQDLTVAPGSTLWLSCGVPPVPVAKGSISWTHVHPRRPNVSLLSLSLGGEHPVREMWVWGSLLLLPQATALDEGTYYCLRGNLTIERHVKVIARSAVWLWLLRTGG
Assay: ELISA, murine CD19 coated
ENDPOINT: OD450 at 1.00 nM (OD450)
// units = OD450; emit number, no label

**Query** Please supply the value of reported OD450 at 1.00 nM for the item FMC63.27-mIgG1 (antibody, V domains shown, Humanized FMC63; also called FMC63-L2H7) VH: EVTLKESGPVLVKPTETLTLTCTVSGVSLPDYGVSWIRQPPGKALEWLAVIWGSETTYYNSALKSRLTISKDNSKSQVVLTMTNMDPVDTATYYCAKHYYYGGSYAMDYWGQGTTVTVSS VL: DIQMTQSPSSLSASVGDRVTITCRASQDISKYLNWYQQKPGGAVKLLIYHTSRLHSGVPSRFSGSGSGTDYTLTISSLQPEDFATYYCQQGNTLPYTFGGGTKVEIKR
**Result** 0.06
